Record form. Attribute: recombinant UMI read abundance (log10). Fill in for each entry.
Assay: recombinant UMI read abundance after kanamycin selection (control-corrected) (log10(CPM+1)); higher = more efficient recombination; extreme values may be limits of the assay; sequences stand for … in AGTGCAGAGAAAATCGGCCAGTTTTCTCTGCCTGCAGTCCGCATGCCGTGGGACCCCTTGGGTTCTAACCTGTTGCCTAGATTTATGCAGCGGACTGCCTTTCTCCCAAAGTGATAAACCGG…AGGTTGGTTTCACT; site = the 11-nt donor;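 further: IS621 bridge recombinase in Escherichia coli cells against a fixed T5 target plasmid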
One number for each entry.

Batch request: recombinant UMI read abundance (log10) for each of the following sequences.
1. CTTTTGGCATGGACCGGTTTTCCCGGTAATCCGTATTTGCT (site CGTTTGGCTAG)
2. CTCTACACATGGACCGGTTTTCCCGGTAATCCGTATTTGTT (site CTCTACACTAA)
3. GCAGTATCATGGACCGGTTTTCCCGGTAATCCGTATTTGCA (site GCAGTATCTTG)
4. CGTGGTACATGGACCGGTTTTCCCGGTAATCCGTATTTGTT (site CGTGGGACTAA)

RESULT:
1: 0.00381; 2: 0.93; 3: 2.68; 4: 0

----------
Test: recombinant UMI read abundance after kanamycin selection (control-corrected) (log10(CPM+1)); higher = more efficient recombination; extreme values may be limits of the assay; sequences stand for … in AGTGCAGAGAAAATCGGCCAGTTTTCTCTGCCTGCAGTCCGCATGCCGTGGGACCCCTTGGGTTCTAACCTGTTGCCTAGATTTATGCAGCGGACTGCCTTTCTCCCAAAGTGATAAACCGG…AGGTTGGTTTCACT; site = the 11-nt donor
Criterion: recombinant UMI read abundance (log10) meeting or surpassing 0.02. Met: YES. Not met: NO.

Solved entries (count: 4):
CGAGGACCATGGACCGGTTTTCCCGGTAATCCGTATTTGGT (site CGAGGACCTTC) ... NO
TGTTCCCCATGGACCGGTTTTCCCGGTAATCCGTATTTGAA (site TGTTCCCCTTA) ... NO
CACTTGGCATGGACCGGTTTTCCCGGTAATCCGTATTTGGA (site CACTTGGCTTT) ... YES
TATTTTGCATGGACCGGTTTTCCCGGTAATCCGTATTTGTG (site TATTTAGCTCA) ... NO

Then there is this sequence:
QUERY: Given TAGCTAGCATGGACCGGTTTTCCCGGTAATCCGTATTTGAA (site TAGGTAGCTTT) , state whether its recombinant UMI read abundance (log10) is at least 0.02.
RESULT: NO

----------
Assay: recombinant UMI read abundance after kanamycin selection (control-corrected) (log10(CPM+1)); higher = more efficient recombination; extreme values may be limits of the assay; sequences stand for … in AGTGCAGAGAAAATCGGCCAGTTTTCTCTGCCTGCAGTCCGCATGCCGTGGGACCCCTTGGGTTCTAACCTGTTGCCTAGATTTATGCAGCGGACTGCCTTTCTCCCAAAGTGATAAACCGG…AGGTTGGTTTCACT; site = the 11-nt donor
Result Type: recombinant UMI read abundance (log10)
Numbers only.

Check out these entries, answers already filled in.
GTTGTCCCATGGACCGGTTTTCCCGGTAATCCGTATTTGGT (site GTTGTTCCTAC) ... 0
CCGTTTACATGGACCGGTTTTCCCGGTAATCCGTATTTGTT (site CCGTTTACTAC) ... 0
TAGCCTTCATGGACCGGTTTTCCCGGTAATCCGTATTTGTT (site TAGCCTTCTAG) ... 0.0127
CAACTAACATGGACCGGTTTTCCCGGTAATCCGTATTTGGA (site CAACTAACTTC) ... 1.93
TAAACAACATGGACCGGTTTTCCCGGTAATCCGTATTTGTA (site TAAACAACTTA) ... 0.815
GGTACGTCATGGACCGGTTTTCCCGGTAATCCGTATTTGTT (site GGTTCGTCTAA) ... 0

Record recombinant UMI read abundance (log10) per entry; entries follow.
1. GGTTATCCATGGACCGGTTTTCCCGGTAATCCGTATTTGCT (site GGTTATCCTAG)
2. CGAGGAACATGGACCGGTTTTCCCGGTAATCCGTATTTGTT (site CGTGGAACTAA)
3. AGGCCTACATGGACCGGTTTTCCCGGTAATCCGTATTTGAC (site AGGACTACTGT)

RESULT:
1: 0; 2: 1.82; 3: 0.528

Look at each sequence and report its recombinant UMI read abundance (log10).
1. CAAGACACATGGACCGGTTTTCCCGGTAATCCGTATTTGGG (site CAAGTCACTCC)
2. TACTTGACATGGACCGGTTTTCCCGGTAATCCGTATTTGGT (site TACTTGACTAT)
3. AGAAGAGCATGGACCGGTTTTCCCGGTAATCCGTATTTGGA (site AGAAGAGCTTC)
4. GGCAATGCATGGACCGGTTTTCCCGGTAATCCGTATTTGAA (site GGCAATACTTT)
5. ACTGCACCATGGACCGGTTTTCCCGGTAATCCGTATTTGAG (site ACTGCACCTCT)
6. GTTAGAACATGGACCGGTTTTCCCGGTAATCCGTATTTGCC (site GTTAGAACTGT)
7. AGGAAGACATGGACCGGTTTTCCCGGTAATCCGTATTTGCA (site ACGGAGACTTG)

RESULT:
1: 0.274; 2: 0.179; 3: 1.81; 4: 0; 5: 0.0235; 6: 0; 7: 2.51
